The values you see were collected from the RNAGym collection of RNA variant scans (doi:10.1101/gr.219683.116).

B1: mRNA-splicing (parent)
chain: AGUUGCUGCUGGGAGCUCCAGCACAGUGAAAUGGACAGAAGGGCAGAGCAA

Variants of: B1
Experiment: exon inclusion enrichment index; higher = more inclusion; WT1 exon 5 minigene, HEK293
Measured Property: exon inclusion enrichment index
Format: numeric value only, no unit, no commentary.

{"Sequence Content": "AGUUCUUCUCGGGAGCUCCAGCACAGUGAAAUGGACAGAAGGGCAUCGCAA [G5C C6U G8C C9U U10C G46U A47C]", "exon inclusion enrichment index": 2.75}
{"Sequence Content": "AGUUUCUUAUGGGAGCUCCAGCACAGUGAAAUGGACAGAAGGGCAGAGCAA [G5U G8U C9A]", "exon inclusion enrichment index": 0.194}
{"Sequence Content": "AGUUGAAGAAGGGAGCUCCAGCACAGUGAAAUGGACAGCAGGGCAGAGCAA [C6A U7A C9A U10A A39C]", "exon inclusion enrichment index": 0.201}

Req: Need exon inclusion enrichment index of AGUUGACGACGGGACGUCCAGCACAGUGAAAUGGACAGAAGGGCAGAGCAA [C6A U7C C9A U10C G15C C16G] , thanks.
Resp: 3.44

Req: # query: exon inclusion enrichment index of entry AGUUGCUGCUGGGAGCUCCACCACAGUGAAAUGGACAGAAGGGCAGAGCAA [G21C]
Resp: 2.64
